- experimental-system: CCR2 receptor (Homo sapiens, UniProt P41597)
- Sequence (P41597 whole entry): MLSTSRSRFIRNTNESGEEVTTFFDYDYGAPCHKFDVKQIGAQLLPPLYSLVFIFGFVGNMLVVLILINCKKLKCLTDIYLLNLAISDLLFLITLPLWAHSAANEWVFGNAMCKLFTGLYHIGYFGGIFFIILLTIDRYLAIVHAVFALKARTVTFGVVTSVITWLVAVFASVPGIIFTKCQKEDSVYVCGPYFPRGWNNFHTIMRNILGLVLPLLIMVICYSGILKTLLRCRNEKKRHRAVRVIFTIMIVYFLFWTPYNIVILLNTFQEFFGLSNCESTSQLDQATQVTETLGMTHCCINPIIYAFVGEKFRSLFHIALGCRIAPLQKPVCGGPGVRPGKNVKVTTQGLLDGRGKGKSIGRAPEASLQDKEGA
- run-description: Calcium activity assay on FLIPR Tetra in HEK-Gqi5 cells stably expressing CCR2
measurement-type: IC50 (nM)

                                   molecule  measurement_type  reading
0  COC(=O)c1ccccc1C[S+]([O-])c1ccc(Cl)cc1NS(=O)(=O)c1ccc(Cl)c(C(F)(F)F)c1 (stereo not shown)              IC50      274
1  COC(=O)CC[S+]([O-])c1ccc(Cl)cc1NS(=O)(=O)c1cc2ccccc2o1 (stereo not shown)              IC50      217
2  COC(=O)c1ccccc1CS(=O)(=O)c1ccc(F)cc1NS(=O)(=O)c1cc2ccccc2o1              IC50       41
3  COC(=O)c1ccccc1CSc1ccc(Cl)cc1NS(=O)(=O)c1ccc(Cl)c(C(F)(F)F)c1              IC50     2380
4  CN(C)C(=O)c1ccccc1CSc1ccc(Cl)cc1NS(=O)(=O)c1ccc(Cl)c(C(F)(F)F)c1              IC50      171
5  COC(=O)CCSc1ccc(Cl)cc1NS(=O)(=O)c1cc2ccccc2o1              IC50      864
6  O=C(O)c1ccccc1C[S+]([O-])c1ccc(F)cc1NS(=O)(=O)c1cc2ccccc2o1 (stereo not shown)              IC50     1850
7  O=C(NCCN1CCCC1)c1ccc(C[S+]([O-])c2ccc(Cl)cc2NS(=O)(=O)c2ccc(Cl)c(C(F)(F)F)c2)cc1 (stereo not shown)              IC50     1430

(a) CCN(CC)C(=O)CCS(=O)(=O)c1ccc(Cl)cc1NS(=O)(=O)c1ccc(Cl)c(C(F)(F)F)c1
(b) COC(=O)c1cccc(CS(=O)(=O)c2ccc(Cl)cc2NS(=O)(=O)c2ccc(Cl)c(C(F)(F)F)c2)c1
Select the item whose IC50 value is smaller, choosing between a and b . Let me know the label of the one you choose.
a

Reference source for all entries: patent US8822530B2
